tested on: OVCAR-8 ovarian; assay: NCI-60 one-dose screen, 48 h; details: 10 µM unless noted
The panel holds about 83,000 compounds, 20% with a hit somewhere; the sample as a whole holds those more often. Active and inactive are the calls of the source. Rule for the calls: active = growth percent below 10; inactive = the rest.
Outcomes you can answer with include only these: active, inactive

Take a look at these entries with their results.
1) NC(=O)CSc1nc(-c2ccc(F)cc2)cc(-c2ccco2)n1 = inactive
2) CC(C)(C)c1ccc(C2CC(=O)C3=C(C2)Nc2ccccc2N(C(=O)c2ccccc2Cl)C3c2ccc(F)cc2)cc1 (stereo unspecified) = active
3) CC[C@]1(O)C[C@@H]2CN(CCc3c([nH]c4ccccc34)[C@@](C(=O)OC)(c3cc4c(cc3OC)N(C)[C@H]3[C@@](O)(C(=O)OC)[C@H](OC(C)=O)[C@]5(CC)C=CCN6CC[C@]43[C@@H]65)C2)C1 = inactive
4) CC(C)CCOc1ccc(-c2n[nH]c(C(F)(F)F)c2-c2cncc(C#N)c2)c(O)c1 = inactive
5) CCOC(=O)c1cnc2ccc(Cl)cc2c1NCCCN(C)C = active
6) NCCOc1ncccc1/C=C1\c2ccccc2-c2ccc(F)cc21 = inactive
7) COc1ccc(-c2nc(-c3ccccc3)c(-c3ccccc3)[nH]2)cc1OC1CCCCC1 = inactive
8) Cc1ccccc1CNC(=O)C1CN(c2ccc(Cl)cc2)N(c2ccc(Cl)cc2)C1=O (stereo unspecified) = inactive
9) COc1ccc(Cn2cc(Cn3c(=O)c(-c4nc5ccccc5[nH]4)cc4ccccc43)nn2)c(OC)c1OC = inactive
10) COc1cccc2cc(N(C)c3nc(C)nc4ccsc34)ccc12 = active

Would you mind telling me which call this test gave `CNCCNc1nc2ccccc2c2c(=O)c3cccc(C)c3sc12` ? inactive

Would you mind telling me which call this test gave `O=C(Nc1ccc(Br)cc1F)c1cc(F)ccc1O` ? active

Would you mind telling me which call this test gave `CCOC(=O)c1ccc(N=Cc2sc(=O)[nH]c2O)cc1` ? inactive

Would you mind telling me which call this test gave `Nc1cccc(Nc2cc(S(=O)(=O)O)c(N)c3c2C(=O)c2ccccc2C3=O)c1` ? inactive

Would you mind telling me which call this test gave `Cc1[nH]c2ccccc2c(=O)c1CC=C(Cl)Cl` ? active

Would you mind telling me which call this test gave `CCOC(=O)C(CC(=O)O)=C(C(=O)OCC)C(=O)OCC` ? inactive

Would you mind telling me which call this test gave `Clc1ccc(Nc2nnc(-c3ccc4c(c3)OCO4)o2)cc1` ? inactive

Would you mind telling me which call this test gave `O=c1c(-c2nc3ccccc3[nH]2)cc2ccccc2n1Cc1cn(Cc2ccc(N3CCOCC3)cc2)nn1` ? inactive

Would you mind telling me which call this test gave `COc1cc(C(=O)O/N=C(\N)Cc2cccc3ccccc23)cc(OC)c1OC` ? active

Would you mind telling me which call this test gave `O=c1nc2sc3nc4ccccc4cc3cc-2s1` ? inactive

Would you mind telling me which call this test gave COC(=O)C1=C(C)NC(C)=C(C(=O)OC)C(N2C(=O)CCC2=O)C1 (stereo unspecified) ? inactive

Would you mind telling me which call this test gave `O=C(N/N=C/c1ccccc1O)C(=O)Nc1ccc(F)cc1` ? inactive

Would you mind telling me which call this test gave `O=C1/C(=C/c2cccc(O)c2)COc2ccc(O)cc21` ? inactive

Would you mind telling me which call this test gave `O=[N+]([O-])c1cc2c(ccc3occc32)o1` ? inactive

Would you mind telling me which call this test gave `Nc1ccc(-c2nc3cc(Oc4ccc(Oc5ccc6[nH]c(-c7ccc(N)cc7)nc6c5)cc4)ccc3[nH]2)cc1` ? inactive

Would you mind telling me which call this test gave COc1ccc(C2C3=C(COC3=O)N(CCO)c3cc4c(cc32)CCC4)cc1 (stereo unspecified) ? inactive

Would you mind telling me which call this test gave `COc1cc(NC(=O)CCSc2nc3ccccc3c(=O)n2CCc2ccccn2)cc(OC)c1OC` ? inactive

Would you mind telling me which call this test gave `COc1cc(-c2c3c(c(Br)n2Cc2ccccc2)-c2nc(N)sc2CC3)cc(OC)c1OC` ? inactive

Would you mind telling me which call this test gave COc1ccc(-n2c(C(O)c3ccccc3)nn(CN3CCOCC3)c2=S)cc1 (stereo unspecified) ? inactive

Origin of the recorded values: PubChem BioAssay (NCI)
